# system_name: T1, major surface antigen 1 (SAG1) of Toxoplasma gondii (Toxoplasma gondii, UniProt P13664 48-336)
# T1 chain: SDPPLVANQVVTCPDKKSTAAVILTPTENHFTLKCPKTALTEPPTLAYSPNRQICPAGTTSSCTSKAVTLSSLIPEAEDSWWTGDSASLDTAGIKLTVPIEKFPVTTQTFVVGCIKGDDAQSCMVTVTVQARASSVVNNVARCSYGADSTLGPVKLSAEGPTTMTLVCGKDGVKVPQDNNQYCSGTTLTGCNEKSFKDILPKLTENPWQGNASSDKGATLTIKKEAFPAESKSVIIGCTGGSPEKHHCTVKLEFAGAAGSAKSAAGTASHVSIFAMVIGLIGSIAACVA
# protocol_summary: SPR; two-state fit (kd1)
observed_property: koff (s⁻¹)
Give bare numbers, in s⁻¹.

binder	u	koff
scFv S1C4 (scFv, V domains shown) VH: QVQLQQSGAELVRPGVSVKISCKGSGYTFTDYGMHWVKQRPGHGLEWIGIISTYSGDASYNQKFKGKATMTVDKSSSTAYMELARLTSEDSAIYYCARSSTWYYFDYWGQGTTLTVSS VL: DIQMTQTPSSLSASLGDRVTISCRASQDISNYLNWYQQKPDGTVKLLIYYTSRLHSGVPSRFSGSGSGTDYSLTISNLEPEDIATYYCQQGNTLPYTFGGGTKLEIK	s⁻¹	0.0158

Working through the 3 binders below one at a time, give koff for each.
1. scFv S1B4 (scFv, V domains shown) VH: QVQLQQSGAELVRPGTSVKISCKASGYTFTDYGMHWVKQSHAKSLEWIGIISTYSGDASYNQKFKGKATMTVDKSSSTAYMQLSSLTSEDSAVYYCARSSTWYYFDYWGQGTLVTVSA VL: DIQMTQTPSSLSASLGDRVTISCRASQDISNYLNWYQQKPDGTVKLLIYYTSRLHSGVPSRFSGSGSGTDYSLTISNLEPEDIATYYCQQGNTLPYTFGGGTKLEIK
2. scFv S1A0 (scFv, V domains shown) VH: QVQLQQSGAELVRPGVSVKISCKGSGYTFTDYGMHWVKQSHAKSLEWIGIISTYSGDASYNQKFKGKATMTVDKSSSTAYMELARLTSEDSAIYYCARSSTWYYFDYWGQGTTLTVSS VL: DIQVTQTTSSLSASLGDRVTISCRASQDISNYLNWYQQKPDGTVKLLIYYTSRLHSGVPSRFSGSGSGTDYSLTISNLEQEDIATYFCQQGNTLPYTFGGGTKLEIK
3. scFv S1A4 (scFv, V domains shown) VH: QVQLQQSGAELVRPGVSVKISCKGSGYTFTDYGMHWVKQSHAKSLEWIGIISTYSGDASYNQKFKGKATMTVDKSSSTAYMELARLTSEDSAIYYCARSSTWYYFDYWGQGTTLTVSS VL: DIQMTQTPSSLSASLGDRVTISCRASQDISNYLNWYQQKPDGTVKLLIYYTSRLHSGVPSRFSGSGSGTDYSLTISNLEPEDIATYYCQQGNTLPYTFGGGTKLEIK

**A:**
[0.0255, 0.0137, 0.0142]
